meta.source: patent US20050032042A1

# recorded-conditions: human, in vivo
parameter-measured: r, saliva vs total plasma
Numbers only.

{"columns": ["molecule", "endpoint-value"],
 "data": [
  ["Cc1cn([C@H]2C=C[C@@H](CO)O2)c(=O)[nH]c1=O [Stavudine]", 0.909],
  ["Cc1cccc(C)c1OCC(=O)N[C@@H](Cc1ccccc1)[C@@H](O)C[C@H](Cc1ccccc1)NC(=O)[C@H](C(C)C)N1CCCNC1=O [Lopinavir]", 0.777],
  ["Cc1ccnc2c1NC(=O)c1cccnc1N2C1CC1 [Nevirapine]", 0.901],
  ["Cc1c(O)cccc1C(=O)N[C@@H](CSc1ccccc1)[C@H](O)CN1C[C@H]2CCCC[C@H]2C[C@H]1C(=O)NC(C)(C)C [Nelfinavir]", 0.047],
  ["O=c1[nH]cnc2c1ncn2[C@H]1CC[C@@H](CO)O1 [Didanosine]", 0.912]
]}

### Prompt Write down r, saliva vs total plasma measured for item CC(C)c1nc(CN(C)C(=O)N[C@H](C(=O)N[C@@H](Cc2ccccc2)C[C@H](O)[C@H](Cc2ccccc2)NC(=O)OCc2cncs2)C(C)C)cs1 [Ritonavir]
### Response 0.991
